# assay.target: human TYK2 kinase domain (JH1) (Homo sapiens, UniProt P29597)
# Construct: recombinantly generated catalytic kinase (also known as JH1) domain of human JAK1, JAK2, JAK3 and TYK2
# Sequence (P29597 897-1176 limits assumed): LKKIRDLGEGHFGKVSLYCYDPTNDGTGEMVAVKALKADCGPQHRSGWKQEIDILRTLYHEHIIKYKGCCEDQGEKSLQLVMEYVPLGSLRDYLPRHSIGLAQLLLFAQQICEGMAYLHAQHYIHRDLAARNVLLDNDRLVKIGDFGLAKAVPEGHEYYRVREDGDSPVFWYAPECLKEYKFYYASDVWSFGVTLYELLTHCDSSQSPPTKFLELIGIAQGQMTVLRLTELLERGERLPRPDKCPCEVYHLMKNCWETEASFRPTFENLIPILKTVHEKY
# test: JH1 biochemical assay for TYK2 (ADP-Glo kinase assay, recombinant JH1 catalytic domain, JAK3-974 peptide, 10 μM ATP)
# settings: TYK2 JH1, ADP-Glo
Where a name gives a salt, the structure may show the parent alone.
reported.metric: IC50

Value sought: IC50, system human TYK2 kinase domain (JH1) (Homo sapiens, UniProt P29597), item C[C@@H]1CN(c2ccnn3cc(-n4cc(C(F)F)cn4)cc23)C(=O)[C@]1(C#N)C1CC1 [Example 338] . Result: 20 to 50 nM

The observed IC50 for CCn1cc(-n2nc(N3C[C@@H](C)[C@@](C#N)(C4CC4)C3=O)c3ccncc32)cn1 [Example 277] when tested with human TYK2 kinase domain (JH1) (Homo sapiens, UniProt P29597) stands at < 5 nM

Kindly note: human TYK2 kinase domain (JH1) (Homo sapiens, UniProt P29597), Cc1c(-c2cn3ncc(F)c3c(N3C[C@@H](C)[C@@](C#N)(C4CC4)C3=O)n2)cnn1C [Example 221] , IC50 value reported: 5 to 20 nM

Short answer on human TYK2 kinase domain (JH1) (Homo sapiens, UniProt P29597) for C[C@@H]1CN(c2ccnn3cc(-c4cnn(C5(CO)CC5)c4)cc23)C(=O)[C@]1(C#N)C1CC1 [Example 322] , IC50: < 5 nM

Log: human TYK2 kinase domain (JH1) (Homo sapiens, UniProt P29597), molecule C[C@@H]1CN(c2nc(-c3cnn([C@H]4C[C@@H](C#N)C4)c3)cn3ncc(F)c23)C(=O)[C@]1(C#N)C1CC1 [Example 292] , IC50 = < 5 nM

Continuing:
human TYK2 kinase domain (JH1) (Homo sapiens, UniProt P29597) IC50 of C[C@@H]1CN(c2nc(-c3ccn(C)c(=O)c3)cn3nccc23)C(=O)[C@]1(C#N)C1CC1 [Example 261, trifluoroacetate] is < 5 nM

The molecule CC(C)n1cc(-c2cc3nccc(N4C[C@@H](C)[C@@](C#N)(C5CC5)C4=O)c3o2)cn1 [Example 346] , when measured on human TYK2 kinase domain (JH1) (Homo sapiens, UniProt P29597), yielded IC50 of < 5 nM

----------
pIC50 values by entry
# assay.target: Tyk2 kinase activity on STAT4 in NK92 cells (Homo sapiens, UniProt P29597)
# test: pSTAT4 cell assay (MSD; NK92 cells, 30 ng/mL IL2 stimulation)
# settings: 30 ng/mL IL2, 15 minutes
pIC50: −log10 of the molar value. Where a name gives a salt, the structure may show the parent alone.

For orientation, consider the following solved cases.
# lookup: Cc1ncc(-c2cn3nccc3c(N3C[C@@H](C)[C@@](C#N)(C4CC4)C3=O)n2)s1 on Tyk2 kinase activity on STAT4 in NK92 cells (Homo sapiens, UniProt P29597), pIC50 = 7.00 to 7.30

Entry CNC(=O)c1ccc(-c2cc3c(N4C[C@@H](C)[C@@](C#N)(C5CC5)C4=O)ccnn3c2)cn1 , Tyk2 kinase activity on STAT4 in NK92 cells (Homo sapiens, UniProt P29597) data, pIC50 value: 7.00 to 7.30

pIC50 value, target or system Tyk2 kinase activity on STAT4 in NK92 cells (Homo sapiens, UniProt P29597), for C[C@@H]1CN(c2ccnn3cc(-c4cnn(C)c4)nc23)C(=O)[C@]1(C#N)C1CC1 : < 7.00

More entries:
CC(C)[C@@]1(C#N)C(=O)N(c2nc(-c3cnn(C)c3)cn3ncc(F)c23)C[C@H]1C tested on Tyk2 kinase activity on STAT4 in NK92 cells (Homo sapiens, UniProt P29597) gave pIC50: < 7.00

The observed pIC50 for C[C@@H]1CN(c2ccnn3cc(-c4cnn5c4CCC5)cc23)C(=O)[C@]1(C#N)C1CC1 when tested with Tyk2 kinase activity on STAT4 in NK92 cells (Homo sapiens, UniProt P29597) stands at < 7.00

Let me check: C[C@@H]1CN(c2nc(-c3cnc4[nH]ccc4c3)cn3nccc23)C(=O)[C@]1(C#N)C1CC1 , system Tyk2 kinase activity on STAT4 in NK92 cells (Homo sapiens, UniProt P29597), measured pIC50 is 7.70 to 8.30

Record for C[C@@H]1CN(c2nc(-c3cnn(C4COC4)c3)cc3ncsc23)C(=O)[C@]1(C#N)C1CC1 under target or system Tyk2 kinase activity on STAT4 in NK92 cells (Homo sapiens, UniProt P29597): pIC50 reported as 7.30 to 7.70

Case C[C@@H]1CN(c2nc(-c3cnn(C)c3)cn3ncc(F)c23)C(=O)[C@]1(C#N)C1CC1 , Tyk2 kinase activity on STAT4 in NK92 cells (Homo sapiens, UniProt P29597), pIC50 recorded as 7.00 to 7.30

Record C[C@@H]1CN(c2ccnn3cc(-c4ccc5cnn(C)c5c4)cc23)C(=O)[C@]1(C#N)C1CC1 / Tyk2 kinase activity on STAT4 in NK92 cells (Homo sapiens, UniProt P29597), pIC50 recorded as 7.00 to 7.30

Lab note: molecule COc1cc(-c2cc3c(N4CC[C@@](C#N)(C5CC5)C4=O)ccnn3c2)ccn1 tested on Tyk2 kinase activity on STAT4 in NK92 cells (Homo sapiens, UniProt P29597); recorded pIC50 was < 7.00

Considering C[C@@H]1CN(c2ccnc3[nH]c(-c4cnn(C)c4)nc23)C(=O)[C@]1(C#N)C1CC1 , its pIC50 with Tyk2 kinase activity on STAT4 in NK92 cells (Homo sapiens, UniProt P29597) was recorded as < 7.00

The molecule COc1cccc(-c2cn3nccc3c(N3C[C@@H](C)[C@@](C#N)(C4CC4)C3=O)n2)n1 on Tyk2 kinase activity on STAT4 in NK92 cells (Homo sapiens, UniProt P29597): pIC50 was < 7.00

Lab note: molecule C[C@@H]1CN(c2nc(-c3cc[nH]n3)cn3nccc23)C(=O)[C@]1(C#N)C1CC1 [Example 232, trifluoroacetate] tested on Tyk2 kinase activity on STAT4 in NK92 cells (Homo sapiens, UniProt P29597); recorded pIC50 was < 7.00

Considering C[C@@H]1CN(c2nc(-c3cnn(C4CN(C)C4)c3)cc3ncsc23)C(=O)[C@]1(C#N)C1CC1 , its pIC50 with Tyk2 kinase activity on STAT4 in NK92 cells (Homo sapiens, UniProt P29597) was recorded as 7.00 to 7.30

With Tyk2 kinase activity on STAT4 in NK92 cells (Homo sapiens, UniProt P29597) as the test system, Cc1cnn2cc(-c3cnn(C)c3)nc(N3C[C@@H](C)[C@@](C#N)(C4CC4)C3=O)c12 showed pIC50 of < 7.00
